The following binders are listed with their measured Kd values.
EXPERIMENTAL_TARGET: T1, Siglec-7-ECD (human, UniProt Q9Y286 19-353)
T1 construct: also called p75; AIRM
T1 sequence (Q9Y286 19-353 limits assumed): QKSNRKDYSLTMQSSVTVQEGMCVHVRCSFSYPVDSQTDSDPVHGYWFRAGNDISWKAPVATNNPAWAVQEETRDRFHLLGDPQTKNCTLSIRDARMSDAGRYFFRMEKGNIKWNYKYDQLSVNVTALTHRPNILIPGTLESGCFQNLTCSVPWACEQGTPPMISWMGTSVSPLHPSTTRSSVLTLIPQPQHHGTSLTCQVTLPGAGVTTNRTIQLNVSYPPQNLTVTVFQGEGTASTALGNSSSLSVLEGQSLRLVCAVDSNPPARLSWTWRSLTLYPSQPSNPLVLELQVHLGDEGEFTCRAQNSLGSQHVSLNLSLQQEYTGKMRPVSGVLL
ASSAY: bio-layer interferometry (ForteBio): antibody captured on the sensor, Siglec-7-ECD as analyte, 1:1 global fit
Write the value in nM as a bare number.

Sample records with Kd:
Kd lookup needed for 9D4 (antibody) heavy chain variable region: QVTLKESGPGILQPSQTLSLTCSFSGFSLSTFGMGVGWIRQPSGKGLEWLAHIWWDDDKYYHPALKSRLTISKDTSNNQVFLKIANVDTAETATFYCARVERGYPLDHWGQGTTLRVSS light chain variable region: DIVLTQSPASLAVSLGQRATISCRASQSVSSSSYSYMHWYQQKPGQPPKLLIKYASNLKSGVPARFSGSGSGTDFTLTIHPVEEEDTATYYCQHSWEIPPTFGGGTKLEIK , thanks.
0.76

Kd lookup needed for 5D1 (antibody) heavy chain variable region: QVQLQQPGAELVKPGASVKMSCKASGYTFTSSWITWVKDRPGQGLEWIGDIYPGNGNTNYNEKFKSKATLTVDTSSNTVYMQLSSLTSEDSAVHYCARDGRGYFDYWGPGTTLTVSS light chain variable region: DIQMTQTTSSLSASLGDRVTIICRASQDISNFLNWYQQKPDGTVKLLMYDTSILQSGVPSRFSGRGSGADYSLTINNLEQEDLATYFCQQGKTLPYTFGGGTKLEIK , thanks.
0.001

Kd lookup needed for anti-Siglec-7 antibody 4B12 (antibody, V domains shown, Used as an AF647 conjugate for detection in the internalization assay; also called 4B12-AF647) VH: EVQLQQSGPELVKPGASVKIPCKASGYTFTDYNMDWVKQSHEKSLEWIGDIDPHNGVTLYNQKFKDKATLTIDKSSNTAYMELRSLTSEDSAVYYCALTGSTYWGQGTLVTVSA VL: DIVMTQSQKFMSTSVGDRVSVTCKASQNVGTNVAWYQQKPGQSPKAVIYSASYRNSGVPDRFTGSGSGTDFTLTISNVQSEDLTEYFCQQYNNYPYTFGGGTKLEIK , thanks.
0.26

---
Kd lookup needed for 10E11 (antibody, V domains shown) VH: EVQLQQSGPELVKPGDSVKISCKASGYSSTGYFMNWVMQSHGKSLEWIGRIIPYNGDTFYNQKFKDKATLTVDKSSNTAHLELRSLTSEDSVVYYCAGPRIGGDYDGGSWLAYWGQGTLVTVSA VL: DIVMTQSQKFMSTTVGDRVSITCKASQNVGTAVAWYQQKPGHSPKLLIYSASNRYTGVPDRFTGSGYGTDFTLTISNMQSEDLADYFCQQYNSYPLTFGAGTKLELK , thanks.
0.522

Kd lookup needed for 2G12 (antibody, V domains shown) VH: QVQLQQPGAELVKPGASVKLSCKASGYTFTSYWMQWVKQRPGQGLEWIGEIDPSVSYTEYNQKFKGKATLTVDTSSSTAYMQLSSLTSEDSAVYFCARWSKDYYGMDYWGQGTSVTVSS VL: DIVLTQSHKFMSTSVGDRVTITCKASQDVSTAVAWYQQKPGQSPKLLIYWTSTRHTGVPDRFTGSGSGTDHTLTISSVQAEDLALYYCHQQYSTPPTFGGGTKLEIK , thanks.
0.205
